Hey, just so you know, these numbers are from patent US20130172384A1.

Let's go through some recorded IC50 values for FAS (Homo sapiens, UniProt P49327) together.
Measured parameter: IC50 (nM)

>>> observed_measurement("CC(C)C(=O)N1CC[C@@H](Cn2c(-c3ccc(-c4ccc5occc5c4)cc3)n[nH]c2=O)C1 [Example 91]")
16
>>> observed_measurement("O=C(C1CC1)N1CC[C@@H](Cn2c(-c3ccc(-c4ccc5cc[nH]c5c4)cc3)n[nH]c2=O)C1 [Example 21]")
4
>>> observed_measurement("O=C(C1CC1)N1CC[C@@H](Cn2c(-c3ccc(-c4ccc(F)cc4)cc3)nn(Cc3ccccc3)c2=O)C1 [Example 42]")
263
>>> observed_measurement("NC(=O)Nc1cccc(-c2ccc(-c3n[nH]c(=O)n3C[C@@H]3CCN(C(=O)C4CC4)C3)cc2)c1 [Example 103]")
316

(P) CC1(C(=O)N2CC[C@@H](Cn3c(-c4ccc(-c5ccc6occc6c5)cc4)n[nH]c3=O)C2)CC1 [Example 97]
(Q) O=C(C1CC1)N1CC[C@@H](Cn2c(-c3ccc(-c4ccc(Cl)cc4F)cc3)n[nH]c2=O)C1 [Example 105]
(R) N#Cc1ccc(-c2ccc(-c3n[nH]c(=O)n3C[C@@H]3CCN(C(=O)C4CC4)C3)cc2)cc1 [Example 66]
Request: Sort the molecules on IC50; start with the lowest figure. When ranking, write the labels in the order the request describes.
Response: P, Q, R
